study.target: NAD-dependent protein deacylase sirtuin-5, mitochondrial (Homo sapiens, UniProt Q9NXA8)
assay.summary: Inhibition of human Sirt5 desuccinylation activity using SKEYFS-succinylLys-QK as substrate at 100 uM after 60 mins by glutamate dehydrpgenase-coupled assay
Sequence (Q9NXA8 37-310 limits assumed): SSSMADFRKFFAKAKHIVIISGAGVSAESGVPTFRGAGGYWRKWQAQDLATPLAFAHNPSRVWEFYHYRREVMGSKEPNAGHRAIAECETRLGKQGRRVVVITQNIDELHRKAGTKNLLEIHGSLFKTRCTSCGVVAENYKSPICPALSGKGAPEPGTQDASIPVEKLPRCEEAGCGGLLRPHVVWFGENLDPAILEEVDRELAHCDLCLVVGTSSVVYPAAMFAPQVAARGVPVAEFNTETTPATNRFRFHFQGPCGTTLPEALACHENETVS
Activity calls are given as the source filed them. The calls are words filed in the database; no cut-off is given here.

{"molecule": "CC(C(=O)Nc1cccc(/N=C/c2c(O)ccc3ccccc23)c1)c1ccccc1 (configuration not stated)", "inhibition": "20%"}
{"molecule": "N#C/C(=C\\c1ccc(-c2cc(Cl)ccc2Cl)o1)C(=O)Nc1cccc2ncccc12", "inhibition": "inactive"}
{"molecule": "O=C(Nc1ccccc1-c1cn2c(CN3CCNCC3)csc2n1)c1cnc2ccccc2n1", "inhibition": "inactive"}
{"molecule": "O=C1Oc2ccc3cc(Br)ccc3c2CC1c1ccccc1 (configuration not stated)", "inhibition": "inactive"}
{"molecule": "CC(NC(=O)c1ccccc1/N=C/c1c(O)ccc2ccccc12)c1ccccc1 (configuration not stated)", "inhibition": "inactive"}
{"molecule": "Cc1ccc(C(=O)Nc2ccc(S(=O)(=O)O)c3cc(S(=O)(=O)O)cc(S(=O)(=O)O)c23)cc1NC(=O)c1cccc(NC(=O)Nc2cccc(C(=O)Nc3cc(C(=O)Nc4ccc(S(=O)(=O)O)c5cc(S(=O)(=O)O)cc(S(=O)(=O)O)c45)ccc3C)c2)c1", "inhibition": "20%"}
{"molecule": "NC(=O)C1CCCc2c1[nH]c1ccc(Cl)cc21 (configuration not stated)", "inhibition": "inactive"}

###

study.target: UniProtKB Q9NXA8
assay.summary: Inhibition of human Sirt5 desuccinylation activity using SKEYFS-succinylLys-QK as substrate measured for 15 mins by MS analysis
Sequence (Q9NXA8 whole entry): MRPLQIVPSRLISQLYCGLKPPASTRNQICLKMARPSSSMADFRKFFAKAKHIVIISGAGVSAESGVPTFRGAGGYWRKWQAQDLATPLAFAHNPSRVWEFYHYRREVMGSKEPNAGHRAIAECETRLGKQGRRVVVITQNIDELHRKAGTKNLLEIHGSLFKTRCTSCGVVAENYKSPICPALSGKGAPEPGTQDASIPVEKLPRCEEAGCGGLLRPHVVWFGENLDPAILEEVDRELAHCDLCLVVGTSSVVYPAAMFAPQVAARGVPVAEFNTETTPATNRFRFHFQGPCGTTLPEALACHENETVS

{"molecule": "O=C1Nc2ccc(I)cc2C1=Cc1cc(Br)c(O)c(Br)c1 [GW305074X]", "IC50": "19.5 µM"}

###

study.target: NAD-dependent protein deacylase sirtuin-5, mitochondrial (Homo sapiens, UniProt Q9NXA8)
assay.summary: Inhibition of human Sirt5 deacetylation activity using SKEYFS-acetylLys-QK as substrate measured for 15 mins by MS analysis
pIC50: −log10 of the molar value.

{"molecule": "O=C1Nc2ccc(I)cc2C1=Cc1cc(Br)c(O)c(Br)c1 [GW305074X]", "pIC50": 3.70}

###

study.target: NAD-dependent protein deacylase sirtuin-5, mitochondrial (Homo sapiens)
assay.summary: Inhibition of human Sirt5 deacetylation activity using FKRGVL-acetylLys-EYGVKV as substrate at 100 uM after 60 mins by glutamate dehydrogenase-coupled assay
The source made the active and inactive calls. The calls are words filed in the database; no cut-off is given here.
Outcome codes: active, inactive

{"compound": "CC(NC(=O)c1ccccc1/N=C/c1c(O)ccc2ccccc12)c1ccccc1 (configuration not stated)", "label.value": "inactive"}
{"compound": "NC(=O)C1CCCc2c1[nH]c1ccc(Cl)cc21 (configuration not stated)", "label.value": "inactive"}
{"compound": "Cc1ccc(C(=O)Nc2ccc(S(=O)(=O)O)c3cc(S(=O)(=O)O)cc(S(=O)(=O)O)c23)cc1NC(=O)c1cccc(NC(=O)Nc2cccc(C(=O)Nc3cc(C(=O)Nc4ccc(S(=O)(=O)O)c5cc(S(=O)(=O)O)cc(S(=O)(=O)O)c45)ccc3C)c2)c1", "label.value": "active"}
{"compound": "O=C(Nc1ccccc1-c1cn2c(CN3CCNCC3)csc2n1)c1cnc2ccccc2n1", "label.value": "inactive"}
{"compound": "N#C/C(=C\\c1ccc(-c2cc(Cl)ccc2Cl)o1)C(=O)Nc1cccc2ncccc12", "label.value": "inactive"}
{"compound": "O=C1Oc2ccc3cc(Br)ccc3c2CC1c1ccccc1 (configuration not stated)", "label.value": "inactive"}
{"compound": "CC(C(=O)Nc1cccc(/N=C/c2c(O)ccc3ccccc23)c1)c1ccccc1 (configuration not stated)", "label.value": "inactive"}
